test system: Hs-578T; assay: NCI tumour cell line growth inhibition, 48 h
Activity calls are given as the source filed them. No stated cut-off is given here; in the data, active = GI50 up to about 1.1 µM and inactive = higher.
measure-name: GI50

Please state recorded GI50 (tested on Hs-578T) of NC1CC(=O)c2csc(Cl)c21 (centres undefined)
35.5 µM (inactive)

Please state recorded GI50 (tested on Hs-578T) of O=C(CCCN1CCC2(CC1)C(=O)NC(=O)N2c1ccccc1)c1ccc(F)cc1
> 100 µM (inactive)

Please state recorded GI50 (tested on Hs-578T) of O=C(COc1ccc(Cl)cc1Cl)N/N=C/C=C/c1ccc([N+](=O)[O-])o1
1.87 µM (inactive)

Please state recorded GI50 (tested on Hs-578T) of Cc1ccc2c(c1)C(=C(C#N)C#N)CCCS2(=O)=O
> 100 µM (inactive)

Please state recorded GI50 (tested on Hs-578T) of CC(C)(C)OC(=O)N(CCCCNC(=O)C(F)(F)F)CCCNC(=O)C(F)(F)F
> 100 µM (inactive)

Please state recorded GI50 (tested on Hs-578T) of Cc1ccc(O)c(-c2csc(NCN3CCN(CNc4nc(-c5cc(C)ccc5O)cs4)CC3)n2)c1
> 100 µM (inactive)

Please state recorded GI50 (tested on Hs-578T) of Cc1ccc(C(=C2Sc3ccccc3S2)C(=C2Sc3ccccc3S2)c2ccc(C)s2)s1
> 100 µM (inactive)

Please state recorded GI50 (tested on Hs-578T) of CC(CO)[C@H]1OC(=O)C=C2[C@@]13O[C@@H]3[C@H]1OC(=O)[C@@]3(C)[C@H]4O[C@H]4C[C@@]2(C)[C@@H]13 (some centres undefined)
2.52 µM (inactive)

Please state recorded GI50 (tested on Hs-578T) of FC(F)(F)c1ccc2c(c1)nc(-c1ccccc1)n2CC1CCCN2CCCCC12 (centres undefined)
16.8 µM (inactive)

====

tested on: NCI-H23; assay: NCI tumour cell line growth inhibition, 48 h
Calls of active or inactive are those of the source. No stated cut-off is given here; in the data, active = GI50 up to about 1.1 µM and inactive = higher.
API: response.call in t for active, f for inactive

For this molecule, state the assay outcome: OC1COC2CC(Nc3ccccn3)OC12 (stereo not given)
f

For this molecule, state the assay outcome: CCOP(=O)(/C=C\n1ccc(=O)[nH]c1=O)OCC
f

For this molecule, state the assay outcome: CNS(=O)(=O)c1ccccc1C(=N)c1ccccc1
f

For this molecule, state the assay outcome: O/N=C(/C(Cl)=C(Cl)Cl)C(Cl)Cl
f

For this molecule, state the assay outcome: C1=CC2C=CC(C=C1)P2c1ccccc1 (stereo not given)
f

For this molecule, state the assay outcome: C=CCCc1cc(OC)ccc1CN(C)C(C)(C)CO
f

For this molecule, state the assay outcome: CC12CCC(/C(=N/c3cc(C(F)(F)F)cc(C(F)(F)F)c3)C1=O)C2(C)C (stereo not given)
f

For this molecule, state the assay outcome: c1ccc([C@@H]2N[C@@]3(CO[Si](c4ccccc4)(c4ccccc4)c4ccccc4)CC[C@H]4CN[C@@H]2[C@H]43)cc1
f

For this molecule, state the assay outcome: CCOC(=O)NC(=O)c1cn(CC(=O)NCC(=O)NCC(=O)N2CCN(CCn3c(C)nc(C(N)=O)c3N)CC2)c(=O)[nH]c1=O
f

For this molecule, state the assay outcome: NC(=O)N1N=C2c3ccccc3SC[C@H]2[C@@H]1c1ccccc1
f

For this molecule, state the assay outcome: COc1ccc(OC)c(Cc2cnc3nc(N)nc(N)c3c2C)c1 [PIRITREXIM ISETHIONATE]
t

For this molecule, state the assay outcome: CC(=O)N1c2ccccc2C2=NN=C(N(C)C)SC21 (stereo not given)
f

For this molecule, state the assay outcome: CC(CO)[C@H]1OC(=O)C=C2[C@@]13O[C@@H]3[C@H]1OC(=O)[C@@]3(C)[C@H]4O[C@H]4C[C@@]2(C)[C@@H]13 (stereo not given in full)
f

For this molecule, state the assay outcome: c1csc(C[N+]23CN4CN(CN(C4)C2)C3)c1
f

For this molecule, state the assay outcome: CCOc1ccc(NC(=O)C(=O)NO)cc1
f

For this molecule, state the assay outcome: CCOC(=O)C1(C/C=C/CCl)CCCC1=O (stereo not given)
f

For this molecule, state the assay outcome: O=c1c2cc(I)ccc2nc(SCc2nnco2)n1Cc1ccccc1
f

For this molecule, state the assay outcome: O=C1CCN2c3ccccc3[C@H]3Cc4cccc(c4[C@@H]2C3)CCO1
f

For this molecule, state the assay outcome: Cc1ccc(-c2nnc(-c3ccc4ccccc4c3)o2)cc1
f

For this molecule, state the assay outcome: COc1c2c(c(OC)c3c1c(=O)c1ccccc1n3C)OCO2
f

====

tested on: A549; test: NCI tumour cell line growth inhibition, 48 h
The source made the active and inactive calls. Cut-off read from the data, not from the text of the source: active = GI50 up to about 1.1 µM and inactive = higher.
measure-name: GI50

Please state recorded GI50 (tested on A549) of COC(=O)CCC(=O)N1CC1C (stereo not given)
> 100 µM (inactive)

Please state recorded GI50 (tested on A549) of CN1CC(S(=O)(=O)c2ccccc2)CC(S(=O)(=O)c2ccccc2)C1c1ccccc1 (stereo not given)
32.7 µM (inactive)

Please state recorded GI50 (tested on A549) of O=C(O)c1cc2c(cc1CC(Cc1ccccc1)C(=O)O)CCC2 (stereo not given)
> 100 µM (inactive)

Please state recorded GI50 (tested on A549) of CC1OC(=O)N(CCCC=C2SCCCS2)C1=O (stereo not given)
> 100 µM (inactive)

Please state recorded GI50 (tested on A549) of COC(=O)[C@]12CC[C@H]3CN(C(=O)OCc4ccccc4)[C@H]([C@H]31)[C@H](c1ccco1)N2S(=O)(=O)c1ccc(C)cc1
31.8 µM (inactive)

Please state recorded GI50 (tested on A549) of Clc1nc(Cl)c(Cl)c(-c2ccccc2)n1
13.8 µM (inactive)

Please state recorded GI50 (tested on A549) of CC(C)=CC(=O)Cc1nc2cc(C)c(C)cc2[nH]c1=O
> 100 µM (inactive)

Please state recorded GI50 (tested on A549) of Clc1ccccc1C1=NN(c2ccccc2)C2c3ccccc3OCC12 (stereo not given)
> 100 µM (inactive)

Please state recorded GI50 (tested on A549) of CN(C)CCCNC(=O)N/N=C/c1cccc([N+](=O)[O-])c1
> 100 µM (inactive)

Please state recorded GI50 (tested on A549) of CN(CCNC(=O)c1cc(-c2ccccc2)nc2ccccc12)CCNC(=O)c1cc(-c2ccccc2)nc2ccccc12
> 100 µM (inactive)

====

test system: KM12; assay: NCI tumour cell line growth inhibition, 48 h
Active and inactive are the calls of the source. No stated cut-off is given here; in the data, active = GI50 up to about 1.1 µM and inactive = higher.
Give GI50 for every item shown.

Could you share which GI50 value was measured for COc1ccc(/C=C2/C[N+](C)(C)C/C(=C/c3ccc(OC)cc3)C2=O)cc1 ?
16 µM (inactive)

Could you share which GI50 value was measured for CSc1nc2nc(C(O)C(O)C(O)CO)cnc2c(=O)[nH]1 (stereo not given) ?
> 100 µM (inactive)

Could you share which GI50 value was measured for COc1ccc(-c2cc(O)c3nc4ccccc4n3c2)cc1 ?
> 100 µM (inactive)

Could you share which GI50 value was measured for COC1C2C[C@@H](O)CCC2C(C(=O)OCCl)C[C@H]1O (stereo not given in full) ?
> 100 µM (inactive)

Could you share which GI50 value was measured for COc1c(-c2nc3ccc(N4CCN(C)CC4)nc3[nH]2)cc(OC)c2[nH]c(CO)nc12 ?
93.5 µM (inactive)

Could you share which GI50 value was measured for CC(O)(CNS(=O)(=O)c1ccccc1)c1ccccc1 (stereo not given) ?
> 100 µM (inactive)

Could you share which GI50 value was measured for NC(=O)n1ncc(Cl)c(Cl)c1=O ?
> 100 µM (inactive)

Could you share which GI50 value was measured for COc1ccc(C(SCC(N)C(=O)O)(c2ccc(OC)cc2)c2ccc(OC)cc2)cc1 (stereo not given) ?
6.32 µM (inactive)

Could you share which GI50 value was measured for COc1ccc(/C=C2\CC3C4CC=C5C[C@@H](O)CC[C@]5(C)C4CC[C@]3(C)\C2=N\O)cc1OC (stereo not given in full) ?
7.5 µM (inactive)

Could you share which GI50 value was measured for C[C@]12CC[C@@H]3c4ccc(O)cc4CC[C@H]3[C@@H]1C/C(=C\c1ccc([N+](=O)[O-])cc1)C2=O ?
42.6 µM (inactive)

====

tested on: DU-145; test: NCI tumour cell line growth inhibition, 48 h
The source made the active and inactive calls. Rule as the data show it: active = GI50 up to about 1.1 µM and inactive = higher.
API: response.call in Y (active), N (inactive)

For this compound, state the assay outcome: Clc1ccc(C(Cc2cccc(Cl)c2)c2c(Cl)nc(N3CCNCC3)nc2Cl)cc1 (stereo not given)
N

For this compound, state the assay outcome: Cn1c(=O)[nH]n(-c2ccc3ccccc3c2)c1=O
N

For this compound, state the assay outcome: O/N=C(/C(Cl)=C(Cl)Cl)C(Cl)Cl
N

For this compound, state the assay outcome: CN(C)c1ccc(/C=c2\c3ccccc3n3c2cc(-c2ccccc2)[n+]3C)cc1
Y

For this compound, state the assay outcome: COc1ccc(C2=NN(C(=O)c3ccc(Cl)cc3)C(O)(c3cc(F)c(Cl)cc3Cl)C2)cc1OC (stereo not given)
N
